molecular target: JBMan (Jack bean α-mannosidase) (Canavalia ensiformis, UniProt C0HJB3); experiment: α-mannosidase inhibition assay with pNP-Man, JBMan; format: biochemical
Sequence (C0HJB3 whole entry): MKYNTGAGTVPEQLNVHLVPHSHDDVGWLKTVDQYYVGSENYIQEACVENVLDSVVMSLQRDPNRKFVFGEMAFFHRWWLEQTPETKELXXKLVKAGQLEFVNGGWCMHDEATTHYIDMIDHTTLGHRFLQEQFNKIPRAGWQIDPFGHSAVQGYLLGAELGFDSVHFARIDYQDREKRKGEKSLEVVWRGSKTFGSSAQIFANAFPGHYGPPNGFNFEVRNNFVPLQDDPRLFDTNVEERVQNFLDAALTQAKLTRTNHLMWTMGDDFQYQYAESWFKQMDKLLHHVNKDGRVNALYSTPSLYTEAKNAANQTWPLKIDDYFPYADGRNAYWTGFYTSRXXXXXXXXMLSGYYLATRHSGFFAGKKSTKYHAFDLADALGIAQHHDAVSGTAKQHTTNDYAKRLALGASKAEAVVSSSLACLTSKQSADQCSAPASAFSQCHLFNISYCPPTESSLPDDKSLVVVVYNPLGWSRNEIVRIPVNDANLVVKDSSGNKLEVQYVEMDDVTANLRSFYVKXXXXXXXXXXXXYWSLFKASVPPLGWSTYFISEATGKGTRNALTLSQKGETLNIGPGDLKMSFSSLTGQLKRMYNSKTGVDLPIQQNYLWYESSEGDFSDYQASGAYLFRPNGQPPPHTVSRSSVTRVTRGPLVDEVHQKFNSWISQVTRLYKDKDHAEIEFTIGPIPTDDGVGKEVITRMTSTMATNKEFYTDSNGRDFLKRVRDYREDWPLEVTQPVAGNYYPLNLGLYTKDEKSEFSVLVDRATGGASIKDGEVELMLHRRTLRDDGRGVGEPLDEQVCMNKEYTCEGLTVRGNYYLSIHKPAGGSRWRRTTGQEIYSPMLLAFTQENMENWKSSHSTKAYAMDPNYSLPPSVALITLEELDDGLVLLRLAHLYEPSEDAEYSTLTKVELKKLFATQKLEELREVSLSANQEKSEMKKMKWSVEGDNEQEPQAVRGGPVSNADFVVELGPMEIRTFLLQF
QUANTITY_NAME: Ki (µM)
Write the answer as a number in µM, unit excluded.

For Cl.N=C(N)CCCCCCCCCN1C[C@@H](O)[C@@H](O)[C@H]1CO [Compound 26] , write its Ki.
1.4

---

Below, each entry is listed alongside its reported SI^a = IC50(LManII)/IC50(GMIIb).
molecular target: GMIIb (Golgi α-mannosidase) (Drosophila melanogaster, UniProt Q9VF33); assay: α-mannosidase inhibition assay with pNP-Man, GMIIb; format: biochemical; settings: selectivity index
Sequence (Q9VF33 31-1249): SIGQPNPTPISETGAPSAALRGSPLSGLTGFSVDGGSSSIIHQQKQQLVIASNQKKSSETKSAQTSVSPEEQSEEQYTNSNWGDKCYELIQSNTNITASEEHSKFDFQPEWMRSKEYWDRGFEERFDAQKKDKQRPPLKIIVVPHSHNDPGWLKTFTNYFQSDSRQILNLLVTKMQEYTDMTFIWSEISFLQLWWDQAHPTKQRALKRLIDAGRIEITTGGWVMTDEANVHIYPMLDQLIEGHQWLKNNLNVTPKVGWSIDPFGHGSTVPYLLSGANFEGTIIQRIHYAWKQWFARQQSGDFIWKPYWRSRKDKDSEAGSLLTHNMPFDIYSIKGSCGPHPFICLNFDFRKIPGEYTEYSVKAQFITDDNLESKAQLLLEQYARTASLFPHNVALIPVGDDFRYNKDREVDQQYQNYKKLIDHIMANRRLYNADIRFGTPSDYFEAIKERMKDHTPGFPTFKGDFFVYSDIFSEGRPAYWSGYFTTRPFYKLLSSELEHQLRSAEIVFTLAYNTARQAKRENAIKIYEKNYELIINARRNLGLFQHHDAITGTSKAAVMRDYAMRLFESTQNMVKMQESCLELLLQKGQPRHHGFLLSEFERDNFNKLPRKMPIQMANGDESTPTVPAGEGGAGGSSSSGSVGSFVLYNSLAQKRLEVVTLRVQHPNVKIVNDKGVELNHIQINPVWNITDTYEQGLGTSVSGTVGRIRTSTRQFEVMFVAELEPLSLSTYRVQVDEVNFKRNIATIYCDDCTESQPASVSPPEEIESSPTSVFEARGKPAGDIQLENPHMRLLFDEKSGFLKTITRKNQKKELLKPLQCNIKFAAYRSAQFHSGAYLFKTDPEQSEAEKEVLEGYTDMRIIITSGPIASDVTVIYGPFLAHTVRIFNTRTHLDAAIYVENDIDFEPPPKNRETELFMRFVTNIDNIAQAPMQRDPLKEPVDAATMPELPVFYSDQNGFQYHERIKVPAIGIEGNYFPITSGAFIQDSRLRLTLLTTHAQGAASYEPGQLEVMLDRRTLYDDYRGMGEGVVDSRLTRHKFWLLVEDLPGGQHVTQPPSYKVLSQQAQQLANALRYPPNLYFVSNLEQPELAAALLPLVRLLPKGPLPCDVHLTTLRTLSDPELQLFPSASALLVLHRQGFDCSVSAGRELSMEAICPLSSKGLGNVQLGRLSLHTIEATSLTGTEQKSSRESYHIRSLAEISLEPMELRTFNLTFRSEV
Kindly provide the number alone.

Before answering, review these 5 worked examples.
# COMPOUND, TESTED_TARGET, REPORTED_RESULT
data = [
    ("Cl.N=C(N)NCc1ccc(CN2C[C@@H](O)[C@@H](O)[C@H]2CO)cc1", "GMIIb (Golgi α-mannosidase) (Drosophila melanogaster, UniProt Q9VF33)", 142),
    ("OC[C@@H]1[C@H](O)[C@H](O)CN1Cc1ccccc1", "GMIIb (Golgi α-mannosidase) (Drosophila melanogaster, UniProt Q9VF33)", 61),
    ("OCC1C(O)C(O)CN1CCc1cccc2ccccc12 (stereo not shown)", "GMIIb (Golgi α-mannosidase) (Drosophila melanogaster, UniProt Q9VF33)", 27),
    ("Cl.N=C(N)NCCCCCCCCCCN1C[C@@H](O)[C@@H](O)[C@H]1CO", "GMIIb (Golgi α-mannosidase) (Drosophila melanogaster, UniProt Q9VF33)", 18),
    ("CCCCCCCCCCCCN1C[C@@H](O)[C@@H](O)[C@H]1CO", "GMIIb (Golgi α-mannosidase) (Drosophila melanogaster, UniProt Q9VF33)", 30),
]

For OC[C@@H](O)[C@H]1NC[C@@H](O)[C@H]1O [DIM, 1,4-dideoxy-1,4-imino-D-mannitol, reference compound] , write its SI^a = IC50(LManII)/IC50(GMIIb).
13

For OC[C@@H]1[C@H](O)[C@H](O)CN1CC1CCOCC1 , write its SI^a = IC50(LManII)/IC50(GMIIb).
63

---

Molecular target: LManII (lysosomal α-mannosidase) (Drosophila melanogaster, UniProt Q9VKV1)
Sequence (Q9VKV1 25-1080): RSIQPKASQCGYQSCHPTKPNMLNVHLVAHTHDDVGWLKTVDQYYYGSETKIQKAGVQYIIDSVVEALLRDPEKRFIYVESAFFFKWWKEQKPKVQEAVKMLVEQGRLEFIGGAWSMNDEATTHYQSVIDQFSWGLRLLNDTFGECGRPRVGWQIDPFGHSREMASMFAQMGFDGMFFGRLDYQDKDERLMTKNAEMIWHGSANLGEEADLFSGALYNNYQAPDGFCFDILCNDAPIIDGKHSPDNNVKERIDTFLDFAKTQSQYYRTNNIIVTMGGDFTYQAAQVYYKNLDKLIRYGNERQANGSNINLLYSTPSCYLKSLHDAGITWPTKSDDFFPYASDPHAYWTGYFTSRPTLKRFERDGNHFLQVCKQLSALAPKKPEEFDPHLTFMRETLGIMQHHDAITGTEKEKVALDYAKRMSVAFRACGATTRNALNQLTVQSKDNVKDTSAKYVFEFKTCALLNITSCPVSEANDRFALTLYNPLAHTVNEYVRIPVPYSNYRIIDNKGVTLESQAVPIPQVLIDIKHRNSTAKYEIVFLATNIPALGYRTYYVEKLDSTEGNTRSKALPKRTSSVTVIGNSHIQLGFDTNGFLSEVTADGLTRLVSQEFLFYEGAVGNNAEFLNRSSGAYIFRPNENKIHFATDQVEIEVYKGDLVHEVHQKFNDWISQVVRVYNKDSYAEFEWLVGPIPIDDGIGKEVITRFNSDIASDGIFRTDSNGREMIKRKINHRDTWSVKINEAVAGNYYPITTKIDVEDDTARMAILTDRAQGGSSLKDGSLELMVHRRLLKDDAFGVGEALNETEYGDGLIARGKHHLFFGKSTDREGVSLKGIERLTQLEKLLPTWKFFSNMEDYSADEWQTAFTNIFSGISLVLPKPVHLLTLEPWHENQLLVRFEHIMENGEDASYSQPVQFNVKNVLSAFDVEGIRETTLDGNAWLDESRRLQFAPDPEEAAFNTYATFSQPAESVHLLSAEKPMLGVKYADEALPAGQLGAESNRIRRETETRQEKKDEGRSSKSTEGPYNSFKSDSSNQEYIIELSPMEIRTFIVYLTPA
Assay: α-mannosidase inhibition assay with pNP-Man, LManII
Type: biochemical
Settings: read-out: IC50 LManII; 2 mM pNP-Man, pH 5.2
Below, each entry is listed alongside its reported pIC50.
On this scale, pIC50 is minus log10 of a concentration expressed in M (mol/L).

Before answering, review these 4 worked examples.
# MOLECULE, TESTED_TARGET, pIC50
rows = [
    ("Cl.N=C(N)NCc1ccc(CN2C[C@@H](O)[C@@H](O)[C@H]2CO)cc1", "LManII (lysosomal α-mannosidase) (Drosophila melanogaster, UniProt Q9VKV1)", 3.47),
    ("OCC1C(O)C(O)CN1Cc1ccc(I)cc1 (centres unmarked)", "LManII (lysosomal α-mannosidase) (Drosophila melanogaster, UniProt Q9VKV1)", 3.34),
    ("OC[C@@H]1[C@H](O)[C@H](O)CN1CC1CCOCC1", "LManII (lysosomal α-mannosidase) (Drosophila melanogaster, UniProt Q9VKV1)", 3.01),
    ("OCC1C(O)C(O)CN1CCc1cccc2ccccc12 (centres unmarked)", "LManII (lysosomal α-mannosidase) (Drosophila melanogaster, UniProt Q9VKV1)", 4.92),
]

Consider the record given below.
For OC[C@@H]1[C@H](O)[C@H](O)CN1Cc1ccc2ccccc2c1 , write its pIC50.
3.07

---

molecular target: LManII (lysosomal α-mannosidase) (Drosophila melanogaster); assay: α-mannosidase inhibition assay with pNP-Man, LManII; type: biochemical; settings: Ki LManII, Dixon plots, pNP-Man 0.5-4 mM, pH 5.2
QUANTITY_NAME: pKi
On this scale, pKi is minus log10 of a concentration expressed in M (mol/L).

For Cl.N=C(N)CCCCCCCCCN1C[C@@H](O)[C@@H](O)[C@H]1CO , write its pKi.
5.49

---

target: GMIIb (Golgi α-mannosidase) (Drosophila melanogaster, UniProt Q9VF33); test: α-mannosidase inhibition assay with pNP-Man, GMIIb; type: biochemical; details: selectivity index
Lab note: compare SI^a = IC50(LManII)/IC50(GMIIb) against 40. Equal or greater, write Yes. Smaller, write No.

# COMPOUND, CLASS_LABEL
rows = [
    ("Cl.N=C(N)CCCCCCCCCN1C[C@@H](O)[C@@H](O)[C@H]1CO", "No"),
]

Check this compound for SI^a = IC50(LManII)/IC50(GMIIb) at or above 40: OC[C@@H]1[C@H](O)[C@H](O)CN1Cc1ccc2ccccc2c1
Yes

Check this compound for SI^a = IC50(LManII)/IC50(GMIIb) at or above 40: Cl.OC[C@H]1NC[C@@H](O)[C@H]1O
No

Check this compound for SI^a = IC50(LManII)/IC50(GMIIb) at or above 40: OC[C@@H]1[C@H](O)[C@H](O)CN1CC1CCCCC1
Yes

Check this compound for SI^a = IC50(LManII)/IC50(GMIIb) at or above 40: OCC1C(O)C(O)CN1Cc1ccc(I)cc1 (centres unmarked)
Yes

---

molecular target: AMAN-2 (Golgi α-mannosidase) (Caenorhabditis elegans); test: α-mannosidase inhibition assay with pNP-Man, AMAN-2; type: biochemical
Param label: returns YES when IC50 < 3000 nM, returns NO otherwise, including exact equality.

Use these answered entries as a reference point.
# COMPOUND, CLASS_LABEL
measured = [
    ("CCCCCCCCCCCCN1C[C@@H](O)[C@@H](O)[C@H]1CO [Compound 21]", "YES"),
    ("Cl.N=C(N)CCCCCCCCCN1C[C@@H](O)[C@@H](O)[C@H]1CO [Compound 26]", "YES"),
    ("OC[C@@H]1[C@H](O)[C@H](O)CN1Cc1ccccc1 [Compound 4, N-Benzyl-1,4-dideoxy-1,4-imino-d-lyxitol]", "NO"),
    ("Cl.N=C(N)NCCCCCCCCCCN1C[C@@H](O)[C@@H](O)[C@H]1CO [Compound 25]", "YES"),
]

Kindly review the next compound as well.
For OC[C@@H]1[C@H](O)[C@H](O)CN1CC1CCCCC1 [Compound 19] , is the recorded IC50 below the cut-off of 3000 nM?
NO

---

Below, each entry is listed alongside its reported SI^b = IC50(JBMan)/IC50(AMAN-2).
Target: AMAN-2 (Golgi α-mannosidase) (Caenorhabditis elegans, UniProt Q2PJ74)
Sequence (Q2PJ74 27-1145): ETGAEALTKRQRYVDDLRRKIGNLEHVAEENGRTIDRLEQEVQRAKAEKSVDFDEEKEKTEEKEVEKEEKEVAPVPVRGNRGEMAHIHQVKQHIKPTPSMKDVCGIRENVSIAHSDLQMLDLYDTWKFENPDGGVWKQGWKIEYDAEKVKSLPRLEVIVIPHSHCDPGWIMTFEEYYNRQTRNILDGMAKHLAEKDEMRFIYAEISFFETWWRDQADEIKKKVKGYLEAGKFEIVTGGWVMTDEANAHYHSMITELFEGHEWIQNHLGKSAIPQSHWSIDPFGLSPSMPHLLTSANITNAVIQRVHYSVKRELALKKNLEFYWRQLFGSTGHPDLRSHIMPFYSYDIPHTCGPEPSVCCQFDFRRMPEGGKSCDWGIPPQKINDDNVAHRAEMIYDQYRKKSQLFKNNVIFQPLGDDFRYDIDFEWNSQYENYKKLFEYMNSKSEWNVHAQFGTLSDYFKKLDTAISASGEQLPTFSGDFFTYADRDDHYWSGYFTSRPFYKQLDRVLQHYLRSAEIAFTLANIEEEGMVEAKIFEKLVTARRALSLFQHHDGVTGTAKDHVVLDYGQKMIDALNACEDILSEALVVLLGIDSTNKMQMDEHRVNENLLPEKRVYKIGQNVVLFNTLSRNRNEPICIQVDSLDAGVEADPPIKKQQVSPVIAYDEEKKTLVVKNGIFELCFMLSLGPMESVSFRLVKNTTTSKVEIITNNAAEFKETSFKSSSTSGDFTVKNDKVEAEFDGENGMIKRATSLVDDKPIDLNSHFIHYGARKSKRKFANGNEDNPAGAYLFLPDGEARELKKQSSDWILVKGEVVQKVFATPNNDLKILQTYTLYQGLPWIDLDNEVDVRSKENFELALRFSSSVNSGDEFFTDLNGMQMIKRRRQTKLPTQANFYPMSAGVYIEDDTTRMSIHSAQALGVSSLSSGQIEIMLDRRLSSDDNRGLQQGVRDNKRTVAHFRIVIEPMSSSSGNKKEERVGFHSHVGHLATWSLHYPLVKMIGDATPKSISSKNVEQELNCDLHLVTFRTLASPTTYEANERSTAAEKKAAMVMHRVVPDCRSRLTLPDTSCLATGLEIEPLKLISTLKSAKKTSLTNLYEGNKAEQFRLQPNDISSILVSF
Assay: α-mannosidase inhibition assay with pNP-Man, AMAN-2
Type: biochemical
Conditions: selectivity index
Kindly provide the number alone.

Before answering, review these 5 worked examples.
# COMPOUND, QUANTITY_NAME, REPORTED_RESULT
measured = [
    ("Cl.OC[C@H]1NC[C@@H](O)[C@H]1O [Compound 6]", "SI^b = IC50(JBMan)/IC50(AMAN-2)", 5),
    ("Cl.N=C(N)NCc1ccc(CN2C[C@@H](O)[C@@H](O)[C@H]2CO)cc1 [Compound 9]", "SI^b = IC50(JBMan)/IC50(AMAN-2)", 9),
    ("OC[C@@H]1[C@H](O)[C@H](O)CN1CC1CCCCC1 [Compound 19]", "SI^b = IC50(JBMan)/IC50(AMAN-2)", 75),
    ("Cl.N=C(N)CCCCCCCCCN1C[C@@H](O)[C@@H](O)[C@H]1CO [Compound 26]", "SI^b = IC50(JBMan)/IC50(AMAN-2)", 3),
    ("CCCCCCCCCCCCN1C[C@@H](O)[C@@H](O)[C@H]1CO [Compound 21]", "SI^b = IC50(JBMan)/IC50(AMAN-2)", 9),
]

Lab note: record SI^b = IC50(JBMan)/IC50(AMAN-2) of OC[C@@H]1[C@H](O)[C@H](O)CN1CC1CCOCC1 [Compound 20] tested on AMAN-2 (Golgi α-mannosidase) (Caenorhabditis elegans, UniProt Q2PJ74).
30
